# measurementTarget: NRAS G12C (Homo sapiens (Human), UniProt P01111+P62937, G12C)
# Sequence (P01111 whole entry G12C): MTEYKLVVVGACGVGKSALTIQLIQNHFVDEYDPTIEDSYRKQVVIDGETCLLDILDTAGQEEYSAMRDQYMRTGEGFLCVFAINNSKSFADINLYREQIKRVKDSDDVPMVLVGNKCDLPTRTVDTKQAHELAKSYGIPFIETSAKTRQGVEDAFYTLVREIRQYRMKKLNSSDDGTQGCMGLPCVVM
# Sequence (P62937 whole entry): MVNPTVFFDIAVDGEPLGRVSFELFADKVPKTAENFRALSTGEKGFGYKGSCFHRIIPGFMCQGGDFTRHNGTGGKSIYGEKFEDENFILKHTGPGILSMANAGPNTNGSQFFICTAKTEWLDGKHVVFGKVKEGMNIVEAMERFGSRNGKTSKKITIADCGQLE
# method: Ras-Raf (BRAF RBD) disruption / FRET / MOA assay, NRAS G12C
# Assay type: biochemical
# experimentalContext: read-out: IC50* NRAS G12C FRET data
valueKind: IC50

Consider the following illustrative entries.
[
  {
    "compound": "CCn1c(-c2cccnc2[C@H](C)OC)c2c3cc(ccc31)-c1cccc(c1)C[C@H](NC(=O)[C@H](C(C)C)N(C)C(=O)C1CCN(C(=O)C#C[C@@H]3CC(F)(F)CN3C)C1)C(=O)N1CCC[C@H](N1)C(=O)OCC(C)(C)C2 (some centres unmarked)",
    "resultValue": "10 to 100 nM"
  },
  {
    "compound": "C=CC(=O)N1C[C@H](C)N(C(=O)N(C)[C@H](C(=O)N[C@H]2Cc3nc(cs3)-c3ccc4c(c3)c(c(-c3cccnc3[C@H](C)OC)n4CC)CC(C)(C)COC(=O)[C@@H]3CCCN(N3)C2=O)C(C)C)[C@@H](C)C1 (atropisomer, axis not shown)",
    "resultValue": "10 to 100 nM"
  },
  {
    "compound": "C=CC(=O)N1CC[C@H](C(=O)N(C)[C@H](C(=O)NC2C[C@H]3CN(CCCO3)c3ccc4c(c3)c(c(-c3cccnc3[C@H](C)OC)n4CC)CC(C)(C)COC(=O)[C@@H]3CCCN(N3)C2=O)C(C)C)C1 (single isomer, unassigned)",
    "resultValue": "> 10000 nM"
  }
]

Prompt: Please look up its IC50: C=CC(=O)N1CC[C@H](C(=O)N(C)[C@H](C(=O)N[C@H]2Cc3nc(cs3)-c3ccc4c(c3)c(c(-c3cc(C5=CCN(C)CC5)cnc3[C@H](C)OC)n4CC)CC(C)(C)COC(=O)[C@@H]3CCCN(N3)C2=O)C(C)C)C1 (atropisomer, axis not shown) [Example A521]
Response: 1000 to 10000 nM

Prompt: Next record, please: C=CC(=O)N1CC[C@H](C(=O)N(C)[C@H](C(=O)N[C@H]2Cc3cccc(c3)-c3ccc4c(c3)c(c(-c3cccnc3[C@@H]3CCCO3)n4CC)CC(C)(C)COC(=O)[C@@H]3CCCN(N3)C2=O)C(C)C)C1 (atropisomer, axis not shown)
Response: 100 to 1000 nM

Prompt: Another: C=CC(=O)N1CC2(CCN2C(=O)N(C)[C@H](C(=O)N[C@H]2Cc3nc(n(C)n3)-c3ccc4c(c3)c(c(-c3cccnc3[C@H](C)OC)n4CC)CC(C)(C)COC(=O)[C@@H]3CCCN(N3)C2=O)C(C)C)C1 (atropisomer, axis not shown)
Response: < 10 nM

Prompt: Now consider CO[C@@H](C)c1ncccc1-c1c2c3cc(ccc3n1CC(F)(F)F)-c1cc(F)cc(c1)C[C@H](NC(=O)[C@@H](COC1CN(C(=O)C#CC(C)(C)N(C)C)C1)C(C)C)C(=O)N1CCC[C@H](N1)C(=O)OCC(C)(C)C2 (atropisomer, axis not shown) .
Response: < 10 nM

Prompt: Now the compound CCn1c(-c2cccnc2[C@H](C)OC)c2c3cc(ccc31)-c1cc(F)cc(c1)C[C@H](NC(=O)[C@@H](COC1CN(C(=O)C#CC(C)(C)N(C)C)C1)C(C)C)C(=O)N1CCC[C@H](N1)C(=O)OCC(C)(C)C2 (atropisomer, axis not shown)
Response: 10 to 100 nM

----------
# measurementTarget: NRAS WT (Homo sapiens (Human), UniProt P01111+P62937)
# Sequence (P01111 whole entry, one chain of several): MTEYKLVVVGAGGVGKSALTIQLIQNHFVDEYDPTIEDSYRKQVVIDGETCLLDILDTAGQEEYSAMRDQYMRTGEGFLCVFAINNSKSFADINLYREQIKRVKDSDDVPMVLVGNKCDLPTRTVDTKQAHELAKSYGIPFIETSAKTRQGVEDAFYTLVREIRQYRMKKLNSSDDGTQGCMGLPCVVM
# method: Ras-Raf (BRAF RBD) disruption / FRET / MOA assay, NRAS WT
# Type: biochemical
# experimentalContext: read-out: IC50* NRAS WT FRET data
pIC50: −log10 of the molar value.
valueKind: pIC50

[
  {
    "compound": "C=CC(=O)N1CC[C@H](C(=O)N(C)[C@H](C(=O)N[C@H]2Cc3cc(O)cc(c3)-c3ccc4c(c3)c(c(-c3cccnc3[C@@H]3CCCO3)n4CC)CC(C)(C)COC(=O)[C@@H]3CCCN(N3)C2=O)C(C)C)C1 (atropisomer, axis not shown)",
    "resultValue": "6.00 to 7.00"
  }
]

Let's switch to this compound now.
Prompt: Please look up its pIC50: CO[C@@H](C)c1ncccc1-c1c2c3cc(ccc3n1CC(F)(F)F)-c1nc(co1)C[C@H](NC(=O)[C@H](C(C)C)N(C)C(=O)C1(F)CCN(C(=O)C#CC(C)(C)N(C)C)CC1)C(=O)N1CCC[C@H](N1)C(=O)OCC(C)(C)C2 (atropisomer, axis not shown)
Response: 6.00 to 7.00

----------
# measurementTarget: KRAS G13D (Homo sapiens (Human), UniProt P01116+P62937, G13D)
# Sequence (P01116-2 other isoform, or with tags, fused parts or gaps G13D, one chain of several): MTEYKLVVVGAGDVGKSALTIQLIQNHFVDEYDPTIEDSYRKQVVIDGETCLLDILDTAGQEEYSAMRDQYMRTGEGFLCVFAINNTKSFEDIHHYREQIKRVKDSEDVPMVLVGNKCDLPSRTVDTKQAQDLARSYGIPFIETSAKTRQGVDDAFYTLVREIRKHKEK
# method: Ras-Raf (BRAF RBD) disruption / FRET / MOA assay, KRAS G13D
# Assay type: biochemical
# experimentalContext: read-out: IC50* KRAS G13D FRET data
pIC50: −log10 of the molar value.
Measured pIC50 by item

[
  {
    "compound": "C=CC(=O)N1CCC12CN(C(=O)N(C)[C@H](C(=O)N[C@H]1Cc3nc(cs3)-c3ccc4c(c3)c(c(-c3cccnc3[C@H](C)OC)n4CC)CC(C)(C)COC(=O)[C@@H]3CCCN(N3)C1=O)C(C)C)C2 (atropisomer, axis not shown) [Example A393]",
    "pIC50": "5.00 to 6.00"
  },
  {
    "compound": "C=CC(=O)N1CCC(C(=O)N(C)[C@H](C(=O)N[C@H]2Cc3cc(CF)cc(c3)-c3ccc4c(c3)c(c(-c3cccnc3[C@H](C)OC)n4CC(F)(F)F)CC(C)(C)COC(=O)[C@@H]3CCCN(N3)C2=O)C(C)C)C1 (stereo partly drawn) [Example A659]",
    "pIC50": "6.00 to 7.00"
  },
  {
    "compound": "C=CC(=O)N1CC[C@H](C(=O)N(C)[C@H](C(=O)N[C@H]2Cc3cc(sn3)-c3ccc4c(c3)c(c(-c3cccnc3[C@H](C)OC)n4CC)CC(C)(C)COC(=O)[C@@H]3CCCN(N3)C2=O)C(C)C)C1 (atropisomer, axis not shown) [Example A340]",
    "pIC50": "5.00 to 6.00"
  },
  {
    "compound": "C=CS(=O)(=O)N1CCC(C(=O)N(C)[C@H](C(=O)N[C@H]2Cc3nc(cs3)-c3ccc4c(c3)c(c(-c3cncnc3)n4CC)CC(C)(C)COC(=O)[C@@H]3CCCN(N3)C2=O)C(C)C)C1 (single isomer, unassigned) [Example A170]",
    "pIC50": "< 5.00"
  },
  {
    "compound": "CCn1c(-c2cccnc2[C@H](C)OC)c2c3cc(ccc31)-c1cccc(c1)C[C@H](NC(=O)[C@H](C(C)C)N(C)C(=O)[C@H]1CCN(C(=O)C#CCN3CCOCC3)C1)C(=O)N1CCC[C@H](N1)C(=O)OCC(C)(C)C2 (atropisomer, axis not shown) [Example A191]",
    "pIC50": "< 5.00"
  },
  {
    "compound": "CCn1c(-c2cccnc2[C@H](C)OC)c2c3cc(ccc31)-c1cccc(c1)C[C@H](NC(=O)[C@H](C(C)C)N1CC[C@]3(CCN(C(=O)C#C[C@H]4COCCN4C4COC4)C3)C1=O)C(=O)N1CCC[C@H](N1)C(=O)OCC(C)(C)C2 (atropisomer, axis not shown) [Example A568]",
    "pIC50": "< 5.00"
  },
  {
    "compound": "C=CC(=O)N1CCC2(CC1)CCN(C(=O)N(C)[C@H](C(=O)N[C@H]1Cc3nc(cs3)-c3ccc4c(c3)c(c(-c3cccnc3[C@H](C)OC)n4CC)CC(C)(C)COC(=O)[C@@H]3CCCN(N3)C1=O)C(C)C)CC2 (atropisomer, axis not shown) [Example A697]",
    "pIC50": "6.00 to 7.00"
  },
  {
    "compound": "C=CC(=O)N1CC[C@H](C(=O)N(C)[C@H](C(=O)N[C@H]2C[C@H]3CN(CCO3)c3ccc4c(c3)c(c(-c3cccnc3COC)n4CC)CC(C)(C)COC(=O)[C@@H]3CCCN(N3)C2=O)C(C)C)C1 [Example A240]",
    "pIC50": "< 5.00"
  },
  {
    "compound": "C=CC(=O)N1CC[C@H](C(=O)N(C)[C@H](C(=O)N[C@H]2Cc3cccc(c3)-c3ccc4c(c3)c(c(-c3cc(CN(C)C)cnc3[C@H](C)OC)n4CC)CC(C)(C)COC(=O)[C@@H]3CCCN(N3)C2=O)C(C)C)C1 (atropisomer, axis not shown) [Example A522]",
    "pIC50": "5.00 to 6.00"
  },
  {
    "compound": "C=CC(=O)N1CC[C@H](C(=O)N(C)[C@H](C(=O)N[C@H]2Cc3cc(cc(C(F)F)c3)-c3ccc4c(c3)c(c(-c3cc(N5CCN(C)CC5)cnc3[C@H](C)OC)n4CC(F)(F)F)CC(C)(C)COC(=O)[C@@H]3CCCN(N3)C2=O)C(C)C)C1 (atropisomer, axis not shown) [Example A357]",
    "pIC50": "6.00 to 7.00"
  }
]

Prompt: // query pIC50 value for entry CCn1c(-c2cccnc2[C@H](C)OC)c2c3cc(ccc31)-c1cc(O)cc(c1)C[C@H](NC(=O)[C@H](C(C)C)N(C)C(=O)[C@H]1CCN(C(=O)C#CC(C)(C)N(C)C)C1)C(=O)N1CCC[C@H](N1)C(=O)OCC(C)(C)C2 (atropisomer, axis not shown) [Example A292]
Response: 6.00 to 7.00

Prompt: Also C=CC(=O)C1C[C@@H](C(=O)N(C)[C@H](C(=O)N[C@H]2Cc3cc(O)cc(c3)-c3ccc4c(n3)c(c(-c3ccccc3CCOC)n4CC)CC(C)(C)COC(=O)[C@@H]3CCCN(N3)C2=O)C(C)C)CN1 (stereo partly drawn) [Example A211] ?
Response: < 5.00

Prompt: Then C=CC(=O)N1CC[C@H](C(=O)N(C)[C@H](C(=O)N[C@H]2Cc3cc(O)cc(c3)-c3ccc4c(c3)c(c(-c3cccnc3CNC)n4CC)CC(C)(C)COC(=O)[C@@H]3CCCN(N3)C2=O)C(C)C)C1 [Example A137] ?
Response: < 5.00

Prompt: Another compound to look at: C=CC(=O)N1CC[C@H](C(=O)N(C)[C@H](C(=O)N[C@H]2Cc3cc(O)cc(c3)-c3ccc4c(c3)c(c(-c3csc(N(C)C)n3)n4CC)CC(C)(C)COC(=O)[C@@H]3CCCN(N3)C2=O)C(C)C)C1 [Example A303]
Response: < 5.00

Prompt: Quick one: C=CC(=O)N1CC[C@H](C(=O)N(C)c2ccccc2C(=O)N[C@H]2Cc3cc(O)cc(c3)-c3ccc4c(c3)c(c(-c3cnccc3COC)n4CC)CC(C)(C)COC(=O)[C@@H]3CCCN(N3)C2=O)C1 [Example A228]
Response: < 5.00
